Attribution: a melting point compilation (Tetko et al.; mined from patent text by program, amines drawn as free bases though some values may be those of a salt)

Value Type: melting point

Worked cases, answers included:
Compound: CC(C)C1(C)CCNC1=O (stereo not given)
Experimental Result: 88 to 90 °C
//
Compound: CS(=O)(=O)c1ccc(-c2cc(C(=O)O)sc2-c2ccc(F)cc2)cc1
Experimental Result: 264 °C
//
Compound: O=C(O)CC(CC(=O)O)c1cccc2oc3c(c12)CCCC3
Experimental Result: 176 to 181 °C

Look at each compound and report its melting point.
1. CCC(=O)OC1CCC2C3CCC4=CC(=O)CCC4(CO)C3CCC12C (stereo not given)
2. COc1cc(N2C(=O)CCC2=O)ccc1OCCCN1CCN(c2ccccc2)CC1
3. Nc1ccc(C(O)(C(F)(F)F)C(F)(F)F)cc1O
4. O=C(O)c1ccc(O)c(C(O)C(Cl)Cl)c1 (stereo not given)
5. O=C(ON1C(=O)CCC1=O)c1cccnc1
6. CC1(C2=C(O)C(=O)c3ccccc3C2=O)CCCCC1
7. CCOCC1OC(n2c(Cl)nc3cc(Cl)c(Cl)cc32)C(O)C1O (stereo not given)
8. Cc1cccc(C)c1N(Cc1ccon1)C(=O)CCl

Reply:
["160 to 162 °C", "166 to 167 °C", "168 to 170 °C", "214 to 215 °C", "129 to 131 °C", "79 °C", "88 to 90 °C", "78 to 81 °C"]

----------
Please respond with reported melting point for every item in the list.

As a guide, the following entries are already answered.
Compound: C=C(Cc1ccc2c(c1)OCO2)C(=O)O
Experimental Result: 121 °C
//
Compound: COc1ccc(CSc2nnc(-c3ccc4occ(-c5ccc(OC)cc5)c4c3)o2)cc1
Experimental Result: 162 to 163 °C
//
Compound: CC(=O)OC1CCC2(C)C(=CC(=O)C3C2CCC2(C)C(OC(C)=O)CCC32)C1 (stereo not given)
Experimental Result: 220 to 221 °C
//
Compound: CN(Cc1ccc(NC(=O)C2=Cc3cc(-c4ccncc4)ccc3OCC2)cc1)C1CCOCC1
Experimental Result: 186 to 187 °C
//
Compound: COc1ccc(-c2nc3cc(F)ccc3s2)cc1OC(=O)c1cccc([N+](=O)[O-])c1
Experimental Result: 212 °C
//
Compound: O=C(c1ccccc1)C1CCN1C(c1ccccc1)c1ccccc1 (stereo not given)
Experimental Result: 114 to 115 °C
//
Compound: COc1cc(C(C)C)c(OC(C#N)=CNc2ccccc2)cc1I
Experimental Result: 170 °C
//
Compound: CCC1(CC)OC(=O)c2cc(N)ccc21
Experimental Result: 153 to 154 °C
//
Compound: CC(=O)OC(CCCN1CCN(c2ncc(F)cn2)CC1)c1ccc(F)cc1 (stereo not given)
Experimental Result: 76 to 77 °C
//
Compound: Cc1cc(C)c(C(=O)c2c(C)cccc2C)c(OCC(O)CNC(C)C)c1 (stereo not given)
Experimental Result: 102 to 104 °C

Parameter requested: melting point. Apply to each item below.
1. CC(=O)SCC(Cc1ccccc1)C(=O)NN1CCCC1 (stereo not given)
2. CCN(CC)C(=O)c1cnn(C)c1C(=O)Nc1ccn2nc(N3CCOCC3)nc2c1

Reply:
1. 91 °C
2. 165 to 167 °C

// input: 8 compounds below; output: melting point for each
1. COc1cc(-c2nc3ccccc3[nH]2)cc([N+](=O)[O-])c1O
2. CNc1nc(C)c(-c2ccnc(Nc3cccc(S(=O)(=O)NCCO)c3)n2)s1
3. Cc1nc2ccc(N)cc2c(=O)n1C1CCC(=O)NC1=O (stereo not given)
4. COC(=O)C(Oc1ccc(C(C)(C)C)cc1)c1ccc(Sc2ccc(Cl)cc2)cc1 (stereo not given)
5. Cc1c(-c2ccccc2)c(N2CC[C@@H](N(C)C)C2)c2oc(C(=O)N(C)C)nc2c1C#N
6. CCOc1cc2c(Cl)ccnc2nc1C
7. CCC(=O)c1cnc2c(OCCO)cccc2c1Nc1ccccc1C
8. COc1cccc(CNC(=O)c2nc3scc(COCc4ccc(CO)cc4)c3c(=O)[nH]2)c1

Reply:
1: 198 to 200 °C; 2: 189 to 190 °C; 3: 314 to 316 °C; 4: 106 to 108 °C; 5: 67 to 70 °C; 6: 164 °C; 7: 174 to 176 °C; 8: 156 to 157 °C

----------
Value Type: melting point

Would you please look over these solved cases?
Molecule: O=C(O)C1=Cc2cc(I)ccc2NC1C(F)(F)F (stereo not given)
melting point: 188 to 192 °C

Molecule: CCN(CC)CCNC(=O)c1[nH]c(-c2ccc(Cl)cc2)c2ccccc12
melting point: 51 to 54 °C

Molecule: O=C(c1ccccc1)n1c(=O)c(F)cn(C2CC(O)C(CO)O2)c1=O (stereo not given)
melting point: 126 to 127 °C

Molecule: O=C(OCC(Cl)(Cl)Cl)c1ncn2c1CN=C(c1ccccc1)c1cc(Br)ccc1-2
melting point: 113 to 116 °C

Molecule: CC(C)NCC(O)C(Oc1ccccc1)c1ccccc1 (stereo not given)
melting point: 95 to 96 °C

Molecule: N#CC1(N2C(=O)c3cccc(Cl)c3C2=O)CCCCC1
melting point: 115 to 116 °C

Molecule: Cc1cc(-c2ccc(C#N)cc2)sc1C(=O)N[C@H](C)[C@](O)(Cn1cncn1)c1ccc(F)cc1F
melting point: 176 to 177 °C

Molecule: ClC1=NC(Cl)(c2ccc(Cl)cc2)NC=N1 (stereo not given)
melting point: 142 to 143 °C

Molecule: COC(=O)c1ccc(OCc2ccc3ccccc3n2)cc1C1(c2ccccc2)CC2CCC1C2 (stereo not given)
melting point: 106 to 107 °C

Alright, here's another molecule for you.
For reference, reported melting point for O=C(O)c1cc(F)c(F)c(I)c1F stands at 122 to 124 °C

----------
Kindly supply the reported melting point values for the records listed here.

Example compounds with recorded melting point:
Compound: O=C(Nc1ccc(Cc2nnn[nH]2)cc1)C(F)(F)C(F)(F)C(F)(F)C(F)(F)F
Value Type: melting point
Experimental Result: 173 to 174 °C
--
Compound: CC(C)(C)OC(=O)NC(CC(=O)NCCC(=O)OCc1ccccc1)C(=O)NCCC(=O)OCc1ccccc1 (centres undefined)
Value Type: melting point
Experimental Result: 109 to 110 °C

Below is a list of compounds. For each, state its recorded melting point.
1. Clc1ccc(Cn2nncc2CN2CCC(c3ccccc3)(c3ccccc3)CC2)cc1
2. CCCc1c2nc(C(=O)Nc3ccccc3)cc(Cl)c2cc2c(=O)cc(C(=O)Nc3ccccc3)oc12

Reply:
1: 195 °C; 2: > 315 °C

----------
I'd be grateful if you could share measured melting point for these entries.

Compound: Cc1ccc(-c2cc(C(=O)/C=C/c3ccc(C(=O)O)cc3)cc3c2C(C)(C)CCC3(C)C)cc1
melting point: 242 °C

Compound: Cc1ccc(C2(CC(=O)O)CNC(=O)C2)c(C)c1 (centres undefined)
melting point: 225 to 230 °C

Compound: CC12CCC3C(CCC4CC(O)CCC43C)C1CCC2S (centres undefined)
melting point: 169 to 170 °C

Please supply melting point for each of the following items, keeping them in order.
1. Cc1cc(C)c(Nc2nc(C)ccc2S(=O)(=O)c2ccc(OCc3c(F)cccc3[N+](=O)[O-])cc2)c(C)c1
2. CP(C)(=O)CNc1cc(Oc2ccc(C(F)(F)F)cc2Cl)ccc1[N+](=O)[O-]
3. CC(C)N1C(=O)c2cnc(-c3ccccc3)nc2N(C(=O)CN2CCN(C)CC2)c2ccccc21
4. O=c1c2cc(F)c(N3CCCC3)cc2n(CC2CC2)c(=O)n1O
5. CC(=CC(=O)c1cccnc1)N1CCCC1
6. O=C(CC1CCC2(CC1)OCCO2)N1CCN(c2ccccn2)CC1

Reply:
132 to 134 °C
166 to 168 °C
168 to 170 °C
211 to 213 °C
116 to 118 °C
113 to 116 °C

----------
I'd be grateful if you could share measured melting point for these entries.

Here are 10 molecules together with their reported answers.
Molecule: CN(Sc1nc2ccccc2s1)C(C)(C)C
melting point: 56 to 58 °C
--
Molecule: O=C(C(=Cc1cc(O)c(O)c([N+](=O)[O-])c1)C(=O)C1CC1)C1CC1
melting point: 159 to 162 °C
--
Molecule: CCOC(=O)c1ncn2c1CN=C(c1ccccc1)c1cc(Cl)ccc1-2
melting point: 174 to 175 °C
--
Molecule: COc1ccc2c(c1)CCC(C(O)C(=O)O)C2=O (configuration not stated)
melting point: 212 to 214 °C
--
Molecule: CCn1ncc2c1ncc1c(=O)n(C)c3ncnn3c12
melting point: 208 to 210 °C
--
Molecule: COc1ccc(-n2cc(/C=C(\C#N)C(=O)NS(=O)(=O)c3ccccc3)c(-c3ccc(Cl)c(F)c3)n2)cc1Cl
melting point: 263 to 264 °C
--
Molecule: O=C(c1ccc([N+](=O)[O-])cc1)N1CCc2cc(S(=O)(=O)n3cc(-c4ccccc4)[nH]c3=O)ccc21
melting point: 245 to 246 °C
--
Molecule: Cc1cccc2c1NCC(=O)N2
melting point: 168 to 171 °C
--
Molecule: O=C(c1ccc(-c2ccc(NC(=S)Nc3ccccc3)cc2)o1)N1CCN2CCC1CC2
melting point: 171 to 175 °C
--
Molecule: Cc1cccc(NC(=O)NC2N=C(c3ccccc3)c3ccccc3N(Cc3nccc4ccccc34)C2=O)c1 (racemic)
melting point: 218 to 221 °C

Working through the 2 molecules below one at a time, give melting point for each.
1. Brc1cccc2nonc12
2. Cc1ccccc1NO

Reply:
1. 92 to 94 °C
2. 38 to 39 °C

Batch: melting point for all items listed.
1. COC(=O)[C@@H](C)Nc1ncccc1[N+](=O)[O-]
2. O=C1CCC(NC(=O)C(Cl)(Cl)Cl)c2ccsc21 (configuration not stated)
3. O=C1c2ccccc2C(=O)N1c1ccccc1CSc1nccn1Cc1ccccn1
4. Cc1cccc(N2CCN(Cc3c[nH]c4ncccc34)CC2)c1
5. CCCc1nc(C=O)cc(N)c1F
6. C[C@H](N)Cn1ncc2ccc3oc(C(N)=O)nc3c21

Reply:
39 to 40 °C
167 to 171 °C
80 to 83 °C
156 to 158 °C
113 to 114 °C
60 to 65 °C

Answer for every listed entry: what is its melting point? The entries follow.
1. COC(=O)c1cccc2c1OCO2
2. O=C(O)c1c[nH]c2nc(Cl)ccc2c1=O
3. COC1C=C(Br)C(=O)CO1 (configuration not stated)

Reply:
["55 to 57 °C", "271 to 273 °C", "74 to 75 °C"]

Entry CC(=O)c1nc2c(cc1F)C[C@@H]1CN(C(=O)OC(C)(C)C)C[C@@H](C)N21 — recorded melting point = 178 to 180 °C
